- measured target: recombinant human MAO-A (Homo sapiens, UniProt P21397)
- Sequence (P21397 1-527): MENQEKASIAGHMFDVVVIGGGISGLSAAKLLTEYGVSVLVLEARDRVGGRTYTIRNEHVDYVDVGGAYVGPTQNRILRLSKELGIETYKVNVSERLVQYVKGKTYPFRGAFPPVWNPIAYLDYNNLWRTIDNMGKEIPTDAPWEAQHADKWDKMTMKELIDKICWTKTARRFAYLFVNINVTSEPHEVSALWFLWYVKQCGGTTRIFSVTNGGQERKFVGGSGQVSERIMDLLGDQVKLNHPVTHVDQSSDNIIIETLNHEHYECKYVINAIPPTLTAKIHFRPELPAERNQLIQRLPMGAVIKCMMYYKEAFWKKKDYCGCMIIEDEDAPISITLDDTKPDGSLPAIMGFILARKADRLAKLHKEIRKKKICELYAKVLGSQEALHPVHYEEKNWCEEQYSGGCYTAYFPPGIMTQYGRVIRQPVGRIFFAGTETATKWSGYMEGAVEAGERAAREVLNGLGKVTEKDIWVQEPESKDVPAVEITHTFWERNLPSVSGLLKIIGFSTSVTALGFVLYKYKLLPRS
- measurement description: Inhibition of human recombinant MAO-A
- condition: incubation time of 2 hours, tyramine 100 μM
- Protocol: Method to Determine the Ability of Compounds of Formula I to Inhibit Human Recombinant MAO-A The selectivity of the compounds of this invention was tested by determining their ability to inhibit MAO-A activity in vitro, using recombinant human MAO-A (0.003 mg/mL; Sigma Aldrich). The assay was performed in a similar way as for human SSAO/VAP-1 (EXAMPLE 9) except, the substrate tyramine was used at 100 μM in place of benzylamine and the assay was run after an incubation time of 2 hours.
Counter-ions that a name gives are not always drawn.
outcome measure: IC50

Reference set, count: 8
1. N#Cc1ccc(OC/C(=C/F)CN)cc1Br :: 3 to 30 µM
2. COc1cc(OC/C(=C/F)CN)ccc1C#N :: > 30 µM
3. N#Cc1ccc(OC/C(=C/F)CN)cc1F :: > 30 µM
4. N#Cc1cccc(OC/C(=C/F)CN)c1 :: 0.3 to 3 µM
5. N#Cc1ccc(OC/C(=C/F)CN)cc1 :: > 30 µM
6. NC/C(=C\F)COc1ccc(OC(F)(F)F)cc1 :: < 0.3 µM
7. N#Cc1ccccc1OC/C(=C/F)CN :: < 0.3 µM
8. Cc1cc(OC/C(=C/F)CN)ccc1C#N :: 3 to 30 µM

Input: # lookup: IC50 of N#Cc1ccc(OC/C(=C/F)CN)c(F)c1
Output: 3 to 30 µM

Input: # lookup: IC50 of COc1ccc(OC/C(=C\F)CN)cc1
Output: 0.3 to 3 µM

Input: # lookup: IC50 of NC/C(=C\F)C1Cc2ccccc2O1 (single isomer, unassigned; (-)) [PXS-5131, Hydrochloride]
Output: 0.3 to 3 µM

---

- measured target: human recombinant SSAO/VAP-1 (Homo sapiens, UniProt Q16853)
- Construct: a cloned cDNA template corresponding to residues 34-763 of human SSAO/VAP-1; TEV cleavage site (N)
- Sequence (Q16853 34-763): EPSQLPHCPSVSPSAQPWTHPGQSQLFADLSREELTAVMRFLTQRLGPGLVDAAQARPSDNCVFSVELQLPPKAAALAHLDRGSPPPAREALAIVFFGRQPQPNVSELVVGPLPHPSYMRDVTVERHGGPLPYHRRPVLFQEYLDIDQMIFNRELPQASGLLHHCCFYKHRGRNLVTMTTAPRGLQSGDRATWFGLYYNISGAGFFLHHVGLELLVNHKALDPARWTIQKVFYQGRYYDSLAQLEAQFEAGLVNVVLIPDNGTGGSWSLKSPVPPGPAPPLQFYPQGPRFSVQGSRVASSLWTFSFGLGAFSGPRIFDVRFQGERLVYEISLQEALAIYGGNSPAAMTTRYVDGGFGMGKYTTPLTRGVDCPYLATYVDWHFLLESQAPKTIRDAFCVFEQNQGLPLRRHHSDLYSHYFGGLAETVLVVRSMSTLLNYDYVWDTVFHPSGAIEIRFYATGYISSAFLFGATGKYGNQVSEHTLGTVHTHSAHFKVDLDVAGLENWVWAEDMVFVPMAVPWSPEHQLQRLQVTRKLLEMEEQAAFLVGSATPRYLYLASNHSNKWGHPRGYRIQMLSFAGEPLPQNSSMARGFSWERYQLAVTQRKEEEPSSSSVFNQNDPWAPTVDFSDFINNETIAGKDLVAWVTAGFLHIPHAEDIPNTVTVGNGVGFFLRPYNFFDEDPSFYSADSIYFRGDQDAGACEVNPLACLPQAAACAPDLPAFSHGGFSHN
- measurement description: Inhibition of human recombinant SSAO/VAP-1 (Amplex Red fluorometric assay)
- condition: 30 min incubation, 37° C., benzylamine substrate
pIC50: −log10 of the molar value.
outcome measure: pIC50

Input: # lookup: pIC50 of N#Cc1ccc(OC/C(=C/F)CN)cc1Br
Output: > 8.00

Input: # lookup: pIC50 of N#Cc1ccc(OC/C(=C/F)CN)c(F)c1
Output: > 8.00

Input: # lookup: pIC50 of N#Cc1ccc(OC/C(=C/F)CN)cc1F
Output: > 8.00

Input: # lookup: pIC50 of COc1cc(OC/C(=C/F)CN)ccc1C#N
Output: 6.30 to 8.00
